Data provenance is patent US10647686B2.

TESTED_TARGET: DRAK2 (Homo sapiens (Human))
Sequence (O94768 whole entry): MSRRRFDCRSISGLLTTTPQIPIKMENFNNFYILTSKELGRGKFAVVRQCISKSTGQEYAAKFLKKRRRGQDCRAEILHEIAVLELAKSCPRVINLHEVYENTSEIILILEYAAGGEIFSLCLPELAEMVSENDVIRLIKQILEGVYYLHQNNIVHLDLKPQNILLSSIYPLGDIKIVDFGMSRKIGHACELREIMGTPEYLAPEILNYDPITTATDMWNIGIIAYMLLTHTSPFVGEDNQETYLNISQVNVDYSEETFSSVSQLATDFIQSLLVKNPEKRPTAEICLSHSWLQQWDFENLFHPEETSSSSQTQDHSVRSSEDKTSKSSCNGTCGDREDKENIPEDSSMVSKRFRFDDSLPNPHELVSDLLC
METHOD: DRAK2 kinase activity inhibition (ADP-Glo, MRCL3 peptide substrate)
Type: biochemical
CONDITION_DESCRIPTION: Table 3; recombinant enzyme, 1 uM ATP, 1 uM MRCL3 peptide, 30° C., 2 hours
Experimental: DRAK1 and DRAK2 recombinant proteins were purchased from SignalChem Inc. To measure the kinase enzyme activity, the ADP-Glo™ kit provided by Promega Inc. was used. […] To measure the DRAK1 and DRAK2 activity, the substrate MRCL3 peptide and ATP were mixed with the enzymes. After an appropriate period of time, the reaction product ADP was quantitatively analyzed. […] 2 hours later, the enzyme reaction was terminated. […] Then, IC50 of each compound was determined using Prism program. […]
pIC50: −log10 of the molar value.
RECORDED_METRIC: pIC50

COMPOUND	pIC50
NCCCNc1nc(Nc2ccc(S(=O)(=O)c3ccc([N+](=O)[O-])cc3)cc2)ncc1Cl	7.85
Cc1cnc(Nc2ccc(Br)c(C(F)(F)F)c2)nc1NCCCN	5.85
CCCCCCc1ccc(Nc2ncc(Cl)c(NCCCN)n2)cc1	7.25
CCc1ccc(Nc2ncc(Cl)c(NCCCN)n2)cc1	7.36
NCCCCNc1nc(Nc2ccc(Cl)cc2)ncc1Cl	7.33

(1) Cc1cnc(Nc2ccc(Br)cc2)nc1NCCCN
(2) COc1ccc(Nc2ncc(Cl)c(NCCCN)n2)cc1Cl
Req: Kindly identify which of 1 and 2 has the larger recorded pIC50 value. Let me know the label of the one you choose.
Resp: 2
(2: 7.46, 1: 7.05)
